# Tested on: G401
# assayExplanation: relative viability vs DMSO control (72 h) (fraction); higher = more viable cells
# experimentalSetup: 3.333 µM
measurementKind: relative viability

>>> print(df.to_string())
                                   molecule  assayresult
0  C1=N/C2=N/c3ccc(OCCN4CCCC4)c(c3)COC/C=C/COCc3cccc(c3)C(=C1)N2 [Pacritinib]        0.044
1  COc1cc2ncnc(Nc3ccc(F)c(Cl)c3)c2cc1NC(=O)/C=C/CN1CCCCC1 [Dacomitinib]        0.548
2  Cc1c(F)cc(C(=O)NC2CC2)cc1-c1ccc(C(=O)NCC(C)(C)C)cn1 [Losmapimod]        0.904
3  NC(=O)c1cccc2cn(-c3ccc([C@@H]4CCCNC4)cc3)nc12 [Niraparib]        0.929
4  NC(=O)c1cnc2[nH]ccc2c1N[C@@H]1[C@@H]2CC3C[C@H]1C[C@@](O)(C3)C2 [Peficitinib]         1.14
5  COc1cc2nccc(Oc3ccc(NC(=O)NC4CC4)c(Cl)c3)c2cc1C(N)=O [Lenvatinib]        0.434
6  FC(F)(F)c1ccc(CNc2ccc(Cc3c[nH]c4ncc(Cl)cc34)cn2)cn1 [Pexidartinib]         0.95

====

# System: SW982
# assayExplanation: relative viability vs DMSO control (72 h) (fraction); higher = more viable cells
# experimentalSetup: 10 µM
Doc: threshold 0.4 (exclusive). Items with relative viability beneath it return yes (1); others return no (0).

                                   compound  qualitativelabel
0  C=CC(=O)Nc1cc(Nc2nccc(-c3cn(C)c4ccccc34)n2)c(OC)cc1N(C)CCN(C)C           yes (1)
1  COc1cc2nccc(Oc3ccc(NC(=O)C4(C(=O)Nc5ccc(F)cc5)CC4)cc3)c2cc1OC [Cabozantinib]           yes (1)
2  Cc1ccc(NC(=O)c2ccc(CN3CCN(C)CC3)cc2)cc1Nc1nccc(-c2cccnc2)n1            no (0)
3  CCCS(=O)(=O)N[C@H]1C[C@@H](N(C)c2ncnc3[nH]ccc23)C1            no (0)
4  Cc1ccc(C(=O)OCc2ccc([C@@H](CN)C(=O)Nc3ccc4cnccc4c3)cc2)c(C)c1           yes (1)
5  Cc1cn(-c2cc(NC(=O)c3ccc(C)c(Nc4nccc(-c5cccnc5)n4)c3)cc(C(F)(F)F)c2)cn1            no (0)
6  NC(=O)c1cccc2cn(-c3ccc([C@@H]4CCCNC4)cc3)nc12            no (0)
7  CCCCCCCCCCCCCCCCCCOP(=O)([O-])OC1CC[N+](C)(C)CC1            no (0)

====

# Tested on: HT1080
# assayExplanation: relative viability vs DMSO control (72 h) (fraction); higher = more viable cells
# experimentalSetup: 0.00017 µM
measurementKind: relative viability

                                    compound     measurementkind  assayresult
 0  Cc1ccc(C(=O)OCc2ccc([C@@H](CN)C(=O)Nc3ccc4cnccc4c3)cc2)c(C)c1  relative viability         1.03
 1  CCN(c1cc(-c2ccc(CN3CCOCC3)cc2)cc(C(=O)NCc2c(C)cc(C)[nH]c2=O)c1C)C1CCOCC1  relative viability         1.09
 2  N#Cc1ccnc(N2C(=O)CC[C@H]2C(=O)N(c2cncc(F)c2)[C@H](C(=O)NC2CC(F)(F)C2)c2ccccc2Cl)c1  relative viability        0.987
 3  C[C@H]1Oc2cc(cnc2N)-c2c(nn(C)c2C#N)CN(C)C(=O)c2ccc(F)cc21  relative viability         1.09
 4  C#Cc1cccc(Nc2ncnc3cc(OCCOC)c(OCCOC)cc23)c1  relative viability         1.09
 5  CCCCCCCCCCCCCCCCCCOP(=O)([O-])OC1CC[N+](C)(C)CC1  relative viability          1.1
 6  COc1cc2ncnc(Nc3cccc(Cl)c3F)c2cc1OC(=O)N1CCN(C)C[C@H]1C  relative viability         1.06
 7  Cc1cccc(-c2[nH]c(CNc3ccccc3F)nc2-c2ccc3ncnn3c2)n1  relative viability         1.02
 8  COc1cc2nccc(Oc3ccc(NC(=O)C4(C(=O)Nc5ccc(F)cc5)CC4)cc3)c2cc1OC [Cabozantinib]  relative viability         1.06
 9  COc1cc2nccc(Oc3ccc(NC(=O)NC4CC4)c(Cl)c3)c2cc1C(N)=O  relative viability         1.07
10  Cc1c(F)cc(C(=O)NC2CC2)cc1-c1ccc(C(=O)NCC(C)(C)C)cn1  relative viability         1.09
11  CN1CCN(CCOc2cc(OC3CCOCC3)c3c(Nc4c(Cl)ccc5c4OCO5)ncnc3c2)CC1  relative viability         1.05

====

# System: HS729
# assayExplanation: relative viability vs DMSO control (72 h) (fraction); higher = more viable cells
# experimentalSetup: 3.333 µM
measurementKind: relative viability

                               linenotation  assayresult
0  COc1cc(Nc2c(C#N)cnc3cc(OCCCN4CCN(C)CC4)c(OC)cc23)c(Cl)cc1Cl         0.79
1  C[C@@H](Oc1cc(-c2cnn(C3CCNCC3)c2)cnc1N)c1c(Cl)ccc(F)c1Cl         0.58
2  Cc1cn(-c2cc(NC(=O)c3ccc(C)c(Nc4nccc(-c5cnccn5)n4)c3)cc(C(F)(F)F)c2)cn1        0.874
3  C#Cc1cccc(Nc2ncnc3cc(OCCOC)c(OCCOC)cc23)c1        0.781
4  CN1CCN(CCOc2cc(OC3CCOCC3)c3c(Nc4c(Cl)ccc5c4OCO5)ncnc3c2)CC1         0.62
5  COc1cc2c(Oc3ccc4[nH]c(C)cc4c3F)ccnc2cc1OCC1(N)CC1        0.678

====

# System: SK-ES-1
# assayExplanation: relative viability vs DMSO control (72 h) (fraction); higher = more viable cells
# experimentalSetup: 0.1235 µM
measurementKind: relative viability

>>> df
                               linenotation  experimentalsystem  assayresult
0  Cc1cc(Nc2ncc(Cl)c(Nc3ccccc3S(=O)(=O)C(C)C)n2)c(OC(C)C)cc1C1CCNCC1             SK-ES-1        0.914
1  Cc1ccc(NC(=O)c2ccc(CN3CCN(C)CC3)cc2)cc1Nc1nccc(-c2cccnc2)n1             SK-ES-1        0.977
2  CN(C)C[C@@H]1CCn2cc(c3ccccc32)C2=C(C(=O)NC2=O)c2cn(c3ccccc23)CCO1             SK-ES-1         1.01
3  CC[C@@H]1C(=O)N(C)c2cnc(Nc3ccc(C(=O)N[C@H]4CC[C@H](N5CCN(CC6CC6)CC5)CC4)cc3OC)nc2N1C(C)C             SK-ES-1       0.0483

====

# System: SW684
# assayExplanation: relative viability vs DMSO control (72 h) (fraction); higher = more viable cells
# experimentalSetup: 0.00017 µM
We begin with a simple list: items and their reported relative viability.
measurementKind: relative viability

In [3]: df
Out[3]:
                                    compound  assayresult
 0  COc1cc2c(Oc3ccc4[nH]c(C)cc4c3F)ccnc2cc1OCC1(N)CC1         1.15
 1  COc1cc2nccc(Oc3ccc(NC(=O)C4(C(=O)Nc5ccc(F)cc5)CC4)cc3)c2cc1OC [Cabozantinib]         1.17
 2  Cc1cn(-c2cc(NC(=O)c3ccc(C)c(Nc4nccc(-c5cnccn5)n4)c3)cc(C(F)(F)F)c2)cn1         1.13
 3  CCN(c1cc(-c2ccc(CN3CCOCC3)cc2)cc(C(=O)NCc2c(C)cc(C)[nH]c2=O)c1C)C1CCOCC1         1.05
 4  Cc1cccc(-c2[nH]c(CNc3ccccc3F)nc2-c2ccc3ncnn3c2)n1         1.15
 5  NC(=O)c1cccc2cn(-c3ccc([C@@H]4CCCNC4)cc3)nc12         1.14
 6  Cc1cn(-c2cc(NC(=O)c3ccc(C)c(Nc4nccc(-c5cccnc5)n4)c3)cc(C(F)(F)F)c2)cn1         1.04
 7  Cc1ccc(NC(=O)c2ccc(CN3CCN(C)CC3)cc2)cc1Nc1nccc(-c2cccnc2)n1        0.968
 8  CN(C)C[C@@H]1CCn2cc(c3ccccc32)C2=C(C(=O)NC2=O)c2cn(c3ccccc23)CCO1         1.12
 9  CCN(CCCOc1ccc2c(Nc3cc(CC(=O)Nc4cccc(F)c4)[nH]n3)ncnc2c1)CCOP(=O)(O)O         1.11
10  Cc1ccc(C(=O)OCc2ccc([C@@H](CN)C(=O)Nc3ccc4cnccc4c3)cc2)c(C)c1         1.12
